The reported measurements were obtained from ChEMBL document CHEMBL1138492.

Reported pKi values follow for various compounds
- target-of-assay: Protein kinase C epsilon type (Homo sapiens, UniProt Q02156)
- assay-comment: Displacement of [3H]PDBu form human PKCepsilon in presence of plasma membrane lipid mimetic mixture
pKi: −log10 of the molar value.

compound	pKi
CC(C)=C1CC(CO)(COC(=O)CCOc2ccc(C#Cc3ccc(C)cc3)cc2)OC1=O (centres undefined)	7.10
CC(C)=C1CC(CO)(COC(=O)COc2ccc(C#Cc3ccc(C)cc3)cc2)OC1=O (centres undefined)	6.83
CC(C)=C1CC(CO)(COC(=O)CCCOc2ccc(C#Cc3ccc(C)cc3)cc2)OC1=O (centres undefined)	7.50
CC(C)=C1CC(CO)(COC(=O)c2ccc(C#Cc3ccc(C)cc3)cc2)OC1=O (centres undefined)	8.08

====

- target-of-assay: Protein kinase C beta type (Homo sapiens, UniProt P05771)
- Sequence (P05771 whole entry): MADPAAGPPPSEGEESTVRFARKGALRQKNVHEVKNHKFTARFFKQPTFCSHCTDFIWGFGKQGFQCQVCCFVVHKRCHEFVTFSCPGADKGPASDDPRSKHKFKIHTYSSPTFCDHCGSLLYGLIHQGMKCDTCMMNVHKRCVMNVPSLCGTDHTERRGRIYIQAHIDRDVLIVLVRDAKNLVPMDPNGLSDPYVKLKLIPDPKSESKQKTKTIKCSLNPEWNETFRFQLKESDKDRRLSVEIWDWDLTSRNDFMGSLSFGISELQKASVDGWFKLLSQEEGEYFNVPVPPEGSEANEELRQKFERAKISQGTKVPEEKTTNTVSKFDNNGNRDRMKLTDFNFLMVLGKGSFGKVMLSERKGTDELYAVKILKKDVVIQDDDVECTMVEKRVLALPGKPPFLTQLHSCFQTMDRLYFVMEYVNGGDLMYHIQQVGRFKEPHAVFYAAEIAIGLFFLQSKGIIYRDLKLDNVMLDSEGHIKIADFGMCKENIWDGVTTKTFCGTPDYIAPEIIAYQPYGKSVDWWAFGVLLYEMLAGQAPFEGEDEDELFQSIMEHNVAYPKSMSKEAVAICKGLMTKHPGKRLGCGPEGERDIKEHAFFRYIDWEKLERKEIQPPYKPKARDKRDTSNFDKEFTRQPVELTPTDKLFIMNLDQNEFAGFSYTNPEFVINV
- assay-comment: Displacement of [3H]PDBu form human PKCbeta in presence of plasma membrane lipid mimetic mixture

compound	unit-text	Ki
CC(C)=C1CC(CO)(COC(=O)COc2ccc(C#Cc3ccc(C)cc3)cc2)OC1=O (centres undefined)	nM	100
CC(C)=C1CC(CO)(COC(=O)CCCOc2ccc(C#Cc3ccc(C)cc3)cc2)OC1=O (centres undefined)	nM	43.8
CC(C)=C1CC(CO)(COC(=O)c2ccc(C#Cc3ccc(C)cc3)cc2)OC1=O (centres undefined)	nM	12.6
CC(C)=C1CC(CO)(COC(=O)CCOc2ccc(C#Cc3ccc(C)cc3)cc2)OC1=O (centres undefined)	nM	66

====

- target-of-assay: Protein kinase C delta type (Homo sapiens, UniProt Q05655)
- Sequence (Q05655 whole entry): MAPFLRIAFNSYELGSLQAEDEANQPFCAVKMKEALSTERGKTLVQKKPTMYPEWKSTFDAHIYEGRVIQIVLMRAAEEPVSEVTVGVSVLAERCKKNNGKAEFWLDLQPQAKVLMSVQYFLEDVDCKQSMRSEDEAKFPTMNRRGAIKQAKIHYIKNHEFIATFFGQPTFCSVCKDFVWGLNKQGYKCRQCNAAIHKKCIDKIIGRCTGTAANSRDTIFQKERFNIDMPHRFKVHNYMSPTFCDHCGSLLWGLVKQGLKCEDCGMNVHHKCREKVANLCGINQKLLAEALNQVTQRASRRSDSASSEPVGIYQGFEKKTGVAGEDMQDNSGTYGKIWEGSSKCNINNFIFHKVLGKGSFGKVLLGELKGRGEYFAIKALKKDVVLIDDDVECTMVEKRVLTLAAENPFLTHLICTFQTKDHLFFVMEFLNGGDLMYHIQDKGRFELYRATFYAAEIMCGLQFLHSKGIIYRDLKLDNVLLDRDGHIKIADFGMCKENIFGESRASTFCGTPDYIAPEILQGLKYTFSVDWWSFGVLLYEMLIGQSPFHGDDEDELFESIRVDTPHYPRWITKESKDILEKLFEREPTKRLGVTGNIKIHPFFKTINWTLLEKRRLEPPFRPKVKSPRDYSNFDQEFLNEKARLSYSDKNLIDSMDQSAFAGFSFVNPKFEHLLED
- assay-comment: Displacement of [3H]PDBu form human PKCdelta in presence of phosphatidylserine
reported-property: Ki

compound	reported-property	reading
CC(C)=C1CC(CO)(COC(=O)CCCOc2ccc(C#Cc3ccc(C)cc3)cc2)OC1=O (centres undefined)	Ki	11.9 nM
CC(C)=C1CC(CO)(COC(=O)COc2ccc(C#Cc3ccc(C)cc3)cc2)OC1=O (centres undefined)	Ki	46.4 nM
CC(C)=C1CC(CO)(COC(=O)CCOc2ccc(C#Cc3ccc(C)cc3)cc2)OC1=O (centres undefined)	Ki	35.8 nM
CC(C)=C1CC(CO)(COC(=O)c2ccc(C#Cc3ccc(C)cc3)cc2)OC1=O (centres undefined)	Ki	5.4 nM

====

Reported Ki values follow for various compounds
- target-of-assay: Protein kinase C alpha type (Homo sapiens, UniProt P17252)
- assay-comment: Displacement of [3H]PDBu form human PKCalpha in presence of phosphatidylserine

compound	Ki
CC(C)=C1CC(CO)(COC(=O)CCCOc2ccc(C#Cc3ccc(C)cc3)cc2)OC1=O (centres undefined)	19.5 nM
CC(C)=C1CC(CO)(COC(=O)COc2ccc(C#Cc3ccc(C)cc3)cc2)OC1=O (centres undefined)	38 nM
CC(C)=C1CC(CO)(COC(=O)c2ccc(C#Cc3ccc(C)cc3)cc2)OC1=O (centres undefined)	6 nM
CC(C)=C1CC(CO)(COC(=O)CCOc2ccc(C#Cc3ccc(C)cc3)cc2)OC1=O (centres undefined)	20.8 nM

====

- target-of-assay: UniProt:P05129
- assay-comment: Displacement of [3H]PDBu form human PKCgamma in presence of phosphatidylserine
pKi: −log10 of the molar value.
Reported pKi values follow for various molecules

molecule	pKi
CC(C)=C1CC(CO)(COC(=O)CCCOc2ccc(C#Cc3ccc(C)cc3)cc2)OC1=O (centres undefined)	7.91
CC(C)=C1CC(CO)(COC(=O)CCOc2ccc(C#Cc3ccc(C)cc3)cc2)OC1=O (centres undefined)	7.46
CC(C)=C1CC(CO)(COC(=O)COc2ccc(C#Cc3ccc(C)cc3)cc2)OC1=O (centres undefined)	7.29
CC(C)=C1CC(CO)(COC(=O)c2ccc(C#Cc3ccc(C)cc3)cc2)OC1=O (centres undefined)	8.21

====

Reported pKi values follow for various molecules
- target-of-assay: Protein kinase C gamma type (Homo sapiens)
- assay-comment: Displacement of [3H]PDBu form human PKCgamma in presence of plasma membrane lipid mimetic mixture
pKi: −log10 of the molar value.

molecule	pKi
CC(C)=C1CC(CO)(COC(=O)CCCOc2ccc(C#Cc3ccc(C)cc3)cc2)OC1=O (centres undefined)	7.50
CC(C)=C1CC(CO)(COC(=O)CCOc2ccc(C#Cc3ccc(C)cc3)cc2)OC1=O (centres undefined)	7.11
CC(C)=C1CC(CO)(COC(=O)c2ccc(C#Cc3ccc(C)cc3)cc2)OC1=O (centres undefined)	7.80
CC(C)=C1CC(CO)(COC(=O)COc2ccc(C#Cc3ccc(C)cc3)cc2)OC1=O (centres undefined)	6.86

====

Reported pKi values follow for various compounds
- target-of-assay: Protein kinase C delta type (Homo sapiens)
- assay-comment: Displacement of [3H]PDBu form human PKCdelta in presence of plasma membrane lipid mimetic mixture
pKi: −log10 of the molar value.

compound	target-of-assay	pKi
CC(C)=C1CC(CO)(COC(=O)COc2ccc(C#Cc3ccc(C)cc3)cc2)OC1=O (centres undefined)	Protein kinase C delta type (Homo sapiens)	7.32
CC(C)=C1CC(CO)(COC(=O)CCOc2ccc(C#Cc3ccc(C)cc3)cc2)OC1=O (centres undefined)	Protein kinase C delta type (Homo sapiens)	7.50
CC(C)=C1CC(CO)(COC(=O)CCCOc2ccc(C#Cc3ccc(C)cc3)cc2)OC1=O (centres undefined)	Protein kinase C delta type (Homo sapiens)	7.94
CC(C)=C1CC(CO)(COC(=O)c2ccc(C#Cc3ccc(C)cc3)cc2)OC1=O (centres undefined)	Protein kinase C delta type (Homo sapiens)	8.56

====

Reported Ki values follow for various molecules
- target-of-assay: Protein kinase C beta type (Homo sapiens, UniProt P05771)
- assay-comment: Displacement of [3H]PDBu form human PKCbeta in presence of phosphatidylserine
reported-property: Ki (nM)

molecule	reported-property	reading
CC(C)=C1CC(CO)(COC(=O)CCCOc2ccc(C#Cc3ccc(C)cc3)cc2)OC1=O (centres undefined)	Ki	15.2
CC(C)=C1CC(CO)(COC(=O)CCOc2ccc(C#Cc3ccc(C)cc3)cc2)OC1=O (centres undefined)	Ki	57
CC(C)=C1CC(CO)(COC(=O)COc2ccc(C#Cc3ccc(C)cc3)cc2)OC1=O (centres undefined)	Ki	76
CC(C)=C1CC(CO)(COC(=O)c2ccc(C#Cc3ccc(C)cc3)cc2)OC1=O (centres undefined)	Ki	4.1

====

- target-of-assay: UniProt P17252
- assay-comment: Displacement of [3H]PDBu form human PKCalpha in presence of plasma membrane lipid mimetic mixture

molecule	target-of-assay	Ki (nM)
CC(C)=C1CC(CO)(COC(=O)c2ccc(C#Cc3ccc(C)cc3)cc2)OC1=O (centres undefined)	UniProt P17252	15.8
CC(C)=C1CC(CO)(COC(=O)CCCOc2ccc(C#Cc3ccc(C)cc3)cc2)OC1=O (centres undefined)	UniProt P17252	76
CC(C)=C1CC(CO)(COC(=O)COc2ccc(C#Cc3ccc(C)cc3)cc2)OC1=O (centres undefined)	UniProt P17252	165
CC(C)=C1CC(CO)(COC(=O)CCOc2ccc(C#Cc3ccc(C)cc3)cc2)OC1=O (centres undefined)	UniProt P17252	143

====

- target-of-assay: Protein kinase C epsilon type (Homo sapiens, UniProt Q02156)
- Sequence (Q02156 whole entry): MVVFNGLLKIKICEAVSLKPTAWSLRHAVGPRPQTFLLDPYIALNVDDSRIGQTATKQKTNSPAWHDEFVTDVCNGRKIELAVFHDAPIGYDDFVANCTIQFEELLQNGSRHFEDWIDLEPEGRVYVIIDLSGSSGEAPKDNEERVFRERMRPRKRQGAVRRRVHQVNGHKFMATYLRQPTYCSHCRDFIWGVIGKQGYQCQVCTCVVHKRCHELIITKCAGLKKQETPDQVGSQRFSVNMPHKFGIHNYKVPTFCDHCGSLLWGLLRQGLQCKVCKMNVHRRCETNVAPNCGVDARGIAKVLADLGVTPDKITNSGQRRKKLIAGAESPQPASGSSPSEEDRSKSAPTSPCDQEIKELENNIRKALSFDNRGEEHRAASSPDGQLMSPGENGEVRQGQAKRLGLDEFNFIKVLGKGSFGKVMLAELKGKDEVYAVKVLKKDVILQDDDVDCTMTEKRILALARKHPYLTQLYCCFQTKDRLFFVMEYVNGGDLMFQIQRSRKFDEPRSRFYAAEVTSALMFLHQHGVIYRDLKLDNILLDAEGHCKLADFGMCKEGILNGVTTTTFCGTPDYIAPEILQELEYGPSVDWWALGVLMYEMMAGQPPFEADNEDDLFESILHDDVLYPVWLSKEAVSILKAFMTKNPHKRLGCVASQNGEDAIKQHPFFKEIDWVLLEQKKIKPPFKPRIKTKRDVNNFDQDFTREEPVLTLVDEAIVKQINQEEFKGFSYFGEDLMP
- assay-comment: Displacement of [3H]PDBu form human PKCepsilon in presence of phosphatidylserine
pKi: −log10 of the molar value.
reported-property: pKi

compound	reported-property	reading
CC(C)=C1CC(CO)(COC(=O)c2ccc(C#Cc3ccc(C)cc3)cc2)OC1=O (centres undefined)	pKi	8.00
CC(C)=C1CC(CO)(COC(=O)CCCOc2ccc(C#Cc3ccc(C)cc3)cc2)OC1=O (centres undefined)	pKi	7.42
CC(C)=C1CC(CO)(COC(=O)CCOc2ccc(C#Cc3ccc(C)cc3)cc2)OC1=O (centres undefined)	pKi	6.82
CC(C)=C1CC(CO)(COC(=O)COc2ccc(C#Cc3ccc(C)cc3)cc2)OC1=O (centres undefined)	pKi	6.57
